Values were extracted from patent US20260216144A1.

Target: MYC:TRRAP interaction (Homo sapiens, UniProt P01106+Q9Y4A5)
Sequence (P01106 16-205): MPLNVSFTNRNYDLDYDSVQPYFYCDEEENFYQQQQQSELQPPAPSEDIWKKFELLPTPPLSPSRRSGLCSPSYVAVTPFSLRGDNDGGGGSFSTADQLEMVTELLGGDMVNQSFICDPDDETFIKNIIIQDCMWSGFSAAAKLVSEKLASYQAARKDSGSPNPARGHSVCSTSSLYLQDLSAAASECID
Sequence (Q9Y4A5 2051-2301): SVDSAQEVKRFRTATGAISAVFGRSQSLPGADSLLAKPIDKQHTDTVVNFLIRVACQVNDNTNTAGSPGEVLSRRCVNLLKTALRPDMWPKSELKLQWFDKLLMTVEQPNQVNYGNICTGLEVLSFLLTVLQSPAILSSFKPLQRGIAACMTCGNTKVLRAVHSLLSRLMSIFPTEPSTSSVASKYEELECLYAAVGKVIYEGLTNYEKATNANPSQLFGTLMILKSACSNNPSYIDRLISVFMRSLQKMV
Test: MYC:TRRAP in-cell luminescence complementation assay (NanoBiT; SmB-MYC 1-190 and TRRAP 2033-2283-LgB in HeLa cells)
Assay type: cell-based
Details: Table 1; 46 primary hits at 10 uM; HeLa cells; triplicate measurements
% Inhibition 10 uM values for the compounds below.
Just the number in %, nothing appended.

[[record]]
compound = "COc1c(OC)c2c3c(nccc3c1OC)-c1cc(=O)c(OC)ccc1-2"
experimental_readout = "% Inhibition 10 uM"
numeric_result = 68.68

[[record]]
compound = "FC(F)(F)c1cccc(-c2nc3nc(Cl)c(Cl)[nH]c-3n2)c1"
experimental_readout = "% Inhibition 10 uM"
numeric_result = 80.85

[[record]]
compound = "COc1cc(O)c2c(c1)C(=O)c1cc3c(c(O)c1C2=O)C(OC1OC(C)C(O)C(O)C1OC)C(OC)C(C)(O)C3=O (stereo not shown)"
experimental_readout = "% Inhibition 10 uM"
numeric_result = 52.48

[[record]]
compound = "Nc1ccc(/N=N/c2ccccc2)c2ccccc12"
experimental_readout = "% Inhibition 10 uM"
numeric_result = 22.41

[[record]]
compound = "Cc1cc(N(C)C)ccc1/N=N/c1ccc2ncccc2c1"
experimental_readout = "% Inhibition 10 uM"
numeric_result = 58.86

[[record]]
compound = "Cc1cc2c(C(C)C)c(O)c(O)c(C=O)c2c(O)c1-c1c(C)cc2c(C(C)C)c(O)c(O)c(C=O)c2c1O"
experimental_readout = "% Inhibition 10 uM"
numeric_result = 68.27

[[record]]
compound = "COc1cccc2c1C(=O)c1c(O)c3c(c(O)c1C2=O)C[C@@](O)(C(C)=O)C[C@@H]3OC1CC(N(Cc2ccccc2)Cc2ccccc2)C(O)C(C)O1.Cl (stereo partly shown)"
experimental_readout = "% Inhibition 10 uM"
numeric_result = 78.65

[[record]]
compound = "N[C@@H](Cc1ccc2oc3cc(=O)c4ccccc4c-3nc2c1)C(=O)O.O=[N+]([O-])O"
experimental_readout = "% Inhibition 10 uM"
numeric_result = 73.39

[[record]]
compound = "COC1=C(N)C(=O)c2nc(-c3nc(C(=O)O)c(C)c(-c4ccc(OC)c(OC)c4O)c3N)ccc2C1=O"
experimental_readout = "% Inhibition 10 uM"
numeric_result = 40.78

[[record]]
compound = "N=c1ccc(/N=N/c2ccc(O)cc2)c(N)[nH]1"
experimental_readout = "% Inhibition 10 uM"
numeric_result = 30.35


Consider the compound Cc1ccc(Cl)cc1NC(=O)c1cc2ccccc2cc1O and give its recorded % Inhibition 10 uM.
48.59

Could you please provide reported % Inhibition 10 uM for Cc1ccc(NC(=O)c2cc3ccccc3c(/N=N/c3ccccc3O)c2O)c(C)c1 ? Thanks!
37.24

Determine its reported % Inhibition 10 uM: CN(C)c1ccc2c(c1)Sc1cc(N(C)C)ccc1N2C(=O)c1ccccc1
93.68

Look up % Inhibition 10 uM of Oc1[nH]c2ccccc2c1/N=N/c1nc(-c2ccc(Br)cc2)cs1 and report it.
58.98

---

Molecular target: MYC:TRRAP interaction (Homo sapiens, UniProt P01106+Q9Y4A5)
Assay: MYC:TRRAP in-cell luminescence complementation assay (NanoBiT; SmB-MYC 1-190 and TRRAP 2033-2283-LgB in HeLa cells)
Assay type: cell-based
Conditions: Table 1; 46 primary hits at 10 uM; HeLa cells; triplicate measurements
% Inhibition 10 uM values for the compounds below.
Entry rule: numbers only, all in %.

[[record]]
compound = "C/N=c1\\sc2c(n1C)C(=O)c1ccccc1C2=O"
numeric_result = 68.66

[[record]]
compound = "COc1ccc(OC)c(-c2cc(=O)c3c(OC)c(OC)c(OC)c(OC)c3o2)c1"
numeric_result = 33.66

[[record]]
compound = "CCN(CC)Cc1cc(/N=N/c2c(O)ccc3c(/N=N/c4ccc(O)c(CN(CC)CC)c4)c(O)ccc23)ccc1O.Cl"
numeric_result = 57.02

[[record]]
compound = "CC(=O)OC(C)C1C2=C(C(=O)C[C@]1(C)O)C(=O)c1c(ccc(-c3ccc4c(c3O)C(=O)C3=C(C4=O)C(C(C)OC(C)=O)[C@@](C)(O)CC3=O)c1O)C2=O (some centres unmarked)"
numeric_result = 46.81

[[record]]
compound = "CN(C)c1ccc(/C=C/C(=O)c2cc(Cl)ccc2O)cc1"
numeric_result = 50.79


Give the reported value of % Inhibition 10 uM for this record: COC(=O)c1c[nH]c2c1-c1cc(C(=O)OCc3ccccc3)n(S(=O)(=O)c3ccc(C)cc3)c1C(=O)C2=O
16.02

Item CC1Oc2cc3c(-c4c(O)cc(O)c5c(O)c6c(cc45)OC(C)C(C)C6=O)c(O)cc(O)c3c(O)c2C(=O)C1C (centres unmarked) : provide % Inhibition 10 uM
76.03

Annotate the compound CC1=C(CCC(=O)O)c2cc3nc(cc4[nH]c(cc4C)cc4[nH]c(cc1n2)cc4C)C(C)=C3CCC(=O)O with its measured % Inhibition 10 uM.
75.42

Check the records and state % Inhibition 10 uM for Cc1cc(O)c(C(C)C)cc1C1(c2cc(C(C)C)c(O)cc2C)OC(=O)c2ccccc21
11.16

Dear colleague, please send me the reported % Inhibition 10 uM for O=C1c2ccccc2C(=O)c2sc(Nc3ccc(Cl)cc3)nc21 when you can.
66.32

// Input: COC(=O)c1cc2c(n1S(=O)(=O)c1ccc(C)cc1)C(=O)C(=O)c1[nH]cc(C(=O)OCc3ccccc3)c1-2 . Output its % Inhibition 10 uM only.
39.88
